# DGKα (Homo sapiens, UniProt P23743): IC50 values follow
# Sequence (P23743 whole entry): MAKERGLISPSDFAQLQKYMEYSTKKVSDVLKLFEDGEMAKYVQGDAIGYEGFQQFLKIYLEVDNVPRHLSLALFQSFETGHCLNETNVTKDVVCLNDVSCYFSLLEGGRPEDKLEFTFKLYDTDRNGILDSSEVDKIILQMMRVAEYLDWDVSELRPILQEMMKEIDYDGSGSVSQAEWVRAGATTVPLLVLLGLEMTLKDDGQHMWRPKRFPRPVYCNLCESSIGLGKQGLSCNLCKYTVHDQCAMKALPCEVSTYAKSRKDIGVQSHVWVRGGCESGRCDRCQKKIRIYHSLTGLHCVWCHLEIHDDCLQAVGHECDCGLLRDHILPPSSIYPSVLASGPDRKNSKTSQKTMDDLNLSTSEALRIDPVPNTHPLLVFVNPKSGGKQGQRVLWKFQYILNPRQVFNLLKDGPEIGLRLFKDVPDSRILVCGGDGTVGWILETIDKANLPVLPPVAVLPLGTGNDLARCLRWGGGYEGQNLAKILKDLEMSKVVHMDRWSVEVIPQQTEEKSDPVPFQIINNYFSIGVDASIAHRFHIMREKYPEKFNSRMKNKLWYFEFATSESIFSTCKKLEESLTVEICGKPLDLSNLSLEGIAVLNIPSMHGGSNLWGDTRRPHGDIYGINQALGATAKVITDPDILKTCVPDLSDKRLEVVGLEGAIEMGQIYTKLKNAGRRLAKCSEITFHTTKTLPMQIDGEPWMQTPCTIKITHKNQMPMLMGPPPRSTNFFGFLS

Consider the following illustrative entries.
>  <molecule>
Cn1c(=O)c(C#N)c(N(C)[C@H]2CC[C@@H](N(CC3CC3)c3cccc(F)c3)CC2)c2nc(Cl)ccc21

>  <assay.readout>
IC50

>  <val>
≥ 1 µM

$$$$
>  <molecule>
Cc1cc(F)ccc1N(CC1CC1)[C@H]1CC[C@@H](N(C)c2c(C#N)c(=O)n(C)c3ccc(C#N)nc23)CC1

>  <assay.readout>
IC50

>  <val>
≥ 1 µM

$$$$
>  <molecule>
Cc1cc(F)ccc1N(CC1COCCO1)[C@H]1CC[C@H](N(C)c2c(C#N)c(=O)n(C)c3ccc(C#N)nc23)CC1 (some centres unmarked)

>  <assay.readout>
IC50

>  <val>
0.1 to 1 µM

$$$$
>  <molecule>
Cn1c(=O)c(C#N)c(N(C)[C@H]2CC[C@@H](N(CC3CC3)c3ccc(Cl)cc3)CC2)c2ncccc21

>  <assay.readout>
IC50

>  <val>
0.01 to 0.1 µM

$$$$

Determine reported IC50 for `Cn1c(=O)c(C#N)c(N(C)[C@H]2CC[C@@H](N(c3ccc(F)cc3)C3CC3)CC2)c2nc(C#N)ccc21` ; test system: DGKα (Homo sapiens, UniProt P23743).
< 0.01 µM

Determine reported IC50 for `Cc1ccc(N(CC2CCC2)[C@H]2CC[C@@H](N(C)c3cc(=O)n(C)c4ccc(C#N)nc34)CC2)cc1` ; test system: DGKα (Homo sapiens, UniProt P23743).
< 0.01 µM

Determine reported IC50 for `Cn1c(=O)cc(N(C)[C@H]2CC[C@H](N(CC3CC3)c3ccc(F)c(OC(F)F)c3)CC2)c2nc(C#N)ccc21` ; test system: DGKα (Homo sapiens, UniProt P23743).
≥ 1 µM

----------
pIC50: −log10 of the molar value.
# DGKα (Homo sapiens, UniProt P23743): pIC50 values follow

>  <molecule>
Cn1c(=O)c(F)c(N(C)[C@H]2CC[C@@H](N(CC3COCCO3)c3ccc(F)cc3)CC2)c2nc(C#N)ccc21 (some centres unmarked) [Example 203]

>  <target.of.assay>
DGKα (Homo sapiens, UniProt P23743)

>  <pIC50>
> 8.00

$$$$

Please indicate pIC50 recorded for CN(c1c(C#N)c(=O)n(C)c2ccc(Cl)nc12)C1CCC(N(CC2CCC2)c2ccc(CN3CCOCC3)cc2)CC1 (single isomer, unassigned) [Example 191]
7.00 to 8.00

Please indicate pIC50 recorded for Cn1c(=O)c(C#N)c(N(C)[C@H]2CC[C@@H](N(c3ccc(F)cc3)C3CCC3)CC2)c2nc(C#N)ccc21 [Example 16]
> 8.00

----------
# target.of.assay: DGKζ (Homo sapiens)
# Sequence (Q13574 1-929 isoform Q13574-4): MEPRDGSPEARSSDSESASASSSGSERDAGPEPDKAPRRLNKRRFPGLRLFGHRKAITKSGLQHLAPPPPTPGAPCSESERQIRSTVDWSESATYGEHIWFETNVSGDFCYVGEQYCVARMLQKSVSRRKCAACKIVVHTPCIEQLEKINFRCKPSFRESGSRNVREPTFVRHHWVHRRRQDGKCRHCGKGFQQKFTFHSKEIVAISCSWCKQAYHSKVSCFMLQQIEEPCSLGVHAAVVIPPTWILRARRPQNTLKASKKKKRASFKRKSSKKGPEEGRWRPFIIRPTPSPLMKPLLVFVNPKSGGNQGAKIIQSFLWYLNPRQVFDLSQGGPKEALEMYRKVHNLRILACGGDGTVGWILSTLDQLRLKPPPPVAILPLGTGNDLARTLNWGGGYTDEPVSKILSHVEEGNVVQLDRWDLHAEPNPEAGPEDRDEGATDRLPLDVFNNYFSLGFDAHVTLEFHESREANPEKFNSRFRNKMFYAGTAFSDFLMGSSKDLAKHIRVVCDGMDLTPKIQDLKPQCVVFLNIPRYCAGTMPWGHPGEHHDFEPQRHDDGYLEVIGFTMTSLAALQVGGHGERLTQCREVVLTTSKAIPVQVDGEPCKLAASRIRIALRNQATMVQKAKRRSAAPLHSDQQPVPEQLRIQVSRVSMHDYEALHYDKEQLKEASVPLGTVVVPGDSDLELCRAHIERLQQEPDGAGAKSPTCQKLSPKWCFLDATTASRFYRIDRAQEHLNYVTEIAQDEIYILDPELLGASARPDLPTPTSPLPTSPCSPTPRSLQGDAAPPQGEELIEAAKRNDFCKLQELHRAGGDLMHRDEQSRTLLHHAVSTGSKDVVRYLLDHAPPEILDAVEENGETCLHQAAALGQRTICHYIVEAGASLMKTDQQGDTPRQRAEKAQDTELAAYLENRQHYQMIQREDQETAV
Entries annotated with measured IC50

Consider the following illustrative entries.
>  <mol>
Cn1c(=O)c(C#N)c(N(C)[C@H]2CC[C@@H](N(CC3CCOCC3)c3ccc(F)cc3)CC2)c2nc(C#N)ccc21

>  <IC50>
100 to 1000 nM

$$$$
>  <mol>
Cc1ccccc1N(CC1CC1)[C@H]1CC[C@H](N(C)c2c(C#N)c(=O)n(C)c3ccc(C#N)nc23)CC1

>  <IC50>
10 to 100 nM

$$$$
>  <mol>
Cn1c(=O)c(C#N)c(N(C)[C@H]2CC[C@@H](N(CC3CC3)c3ccc(Cl)cc3)CC2)c2nc(Cl)ccc21

>  <IC50>
≥ 1000 nM

$$$$

Determine reported IC50 for `Cc1cc(N(CC2CCC2)[C@H]2CC[C@@H](N(C)c3c(C#N)c(=O)n(C)c4ccc(C#N)nc34)CC2)ccc1F` ; test system: DGKζ (Homo sapiens).
10 to 100 nM

Determine reported IC50 for `Cn1c(=O)c(C#N)c(N[C@H]2CC[C@H](N(CC3CC3)c3ccccc3)CC2)c2nc(Cl)ccc21` ; test system: DGKζ (Homo sapiens).
≥ 1000 nM

Determine reported IC50 for `CC(C)CN(c1ccc(F)cc1)[C@H]1CC[C@H](N(C)c2cc(=O)n(C)c3ccc(C#N)nc23)CC1` ; test system: DGKζ (Homo sapiens).
≥ 1000 nM

Determine reported IC50 for `Cc1cc(F)c(F)cc1N(CC1CCC1)[C@H]1CC[C@H](N(C)c2c(C#N)c(=O)n(C)c3ccc(Cl)nc23)CC1` ; test system: DGKζ (Homo sapiens).
≥ 1000 nM

Source: patent US20230271954A1
